The reported numbers originate from ChEMBL document CHEMBL1961873.

// inhibition lookup, one value per entry
Target: Homeodomain-interacting protein kinase 4 (Homo sapiens) (UniProt Q8NE63);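 further: values are mean percent inhibition of HIPK4 from the GSK PKIS kinase screen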
Sequence (whole entry): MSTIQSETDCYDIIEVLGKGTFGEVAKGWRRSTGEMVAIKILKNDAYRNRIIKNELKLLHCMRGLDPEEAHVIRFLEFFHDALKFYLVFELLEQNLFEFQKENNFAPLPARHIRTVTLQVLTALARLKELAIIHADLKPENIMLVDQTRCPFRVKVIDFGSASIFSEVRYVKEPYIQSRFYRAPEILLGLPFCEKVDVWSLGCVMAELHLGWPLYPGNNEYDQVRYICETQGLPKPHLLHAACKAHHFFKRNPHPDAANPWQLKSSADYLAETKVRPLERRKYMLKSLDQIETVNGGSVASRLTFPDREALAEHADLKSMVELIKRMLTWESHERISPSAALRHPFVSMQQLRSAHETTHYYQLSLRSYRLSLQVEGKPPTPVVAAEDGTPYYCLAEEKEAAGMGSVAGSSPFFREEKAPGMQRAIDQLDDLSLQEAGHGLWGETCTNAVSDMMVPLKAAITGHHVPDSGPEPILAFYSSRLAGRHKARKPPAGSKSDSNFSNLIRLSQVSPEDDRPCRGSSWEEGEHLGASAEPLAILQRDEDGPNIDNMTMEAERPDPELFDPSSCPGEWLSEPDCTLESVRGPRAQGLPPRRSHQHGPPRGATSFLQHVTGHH
Conditions: at 1 µM
Hi! Could you send only the number? It should be in %, unit omitted.

Field: example entries. Status: answers known.
| INPUT_SMILES | inhibition, % |
| --- | --- |
| NS(=O)(=O)c1ccc(N/C=C2\C(=O)Nc3ccc4ncsc4c32)cc1 | 11.8 |
| CCn1c(-c2nonc2N)nc2c(C#CC(C)(C)O)nc(O[C@@H](CN)c3ccccc3)cc21 | 36.3 |
| COc1cccc(COc2cc(-n3cnc4ccccc43)sc2C(N)=O)c1 | 2.84 |
| COc1cc2c(cc1Nc1nc(Nc3ccsc3C(N)=O)c3cc[nH]c3n1)N(C(=O)CN(C)C)CCC2 | 5.44 |
| COc1cccc(-n2ncc3c(N/N=C/c4ccncc4)ncnc32)c1 | 61.3 |

### Prompt // returns reported inhibition for input `Nc1nonc1-c1nc2cnccc2n1C1CCCCC1`
### Response 10.3

### Prompt Please do the same for `CCn1c(-c2nonc2N)nc2c(C#CC(C)(C)O)ncc(OC[C@@H]3CCCN3)c21` as well.
### Response 0.31

### Prompt Please do the same for `Fc1ccc(-c2ncn(C3CCNCC3)c2-c2ccnc(Oc3ccccc3)n2)cc1` as well.
### Response 2.3

====

// inhibition lookup, one value per entry
System: Proto-oncogene tyrosine-protein kinase receptor Ret (Homo sapiens), P07949 [V804L]
Sequence (P07949 whole entry V804L): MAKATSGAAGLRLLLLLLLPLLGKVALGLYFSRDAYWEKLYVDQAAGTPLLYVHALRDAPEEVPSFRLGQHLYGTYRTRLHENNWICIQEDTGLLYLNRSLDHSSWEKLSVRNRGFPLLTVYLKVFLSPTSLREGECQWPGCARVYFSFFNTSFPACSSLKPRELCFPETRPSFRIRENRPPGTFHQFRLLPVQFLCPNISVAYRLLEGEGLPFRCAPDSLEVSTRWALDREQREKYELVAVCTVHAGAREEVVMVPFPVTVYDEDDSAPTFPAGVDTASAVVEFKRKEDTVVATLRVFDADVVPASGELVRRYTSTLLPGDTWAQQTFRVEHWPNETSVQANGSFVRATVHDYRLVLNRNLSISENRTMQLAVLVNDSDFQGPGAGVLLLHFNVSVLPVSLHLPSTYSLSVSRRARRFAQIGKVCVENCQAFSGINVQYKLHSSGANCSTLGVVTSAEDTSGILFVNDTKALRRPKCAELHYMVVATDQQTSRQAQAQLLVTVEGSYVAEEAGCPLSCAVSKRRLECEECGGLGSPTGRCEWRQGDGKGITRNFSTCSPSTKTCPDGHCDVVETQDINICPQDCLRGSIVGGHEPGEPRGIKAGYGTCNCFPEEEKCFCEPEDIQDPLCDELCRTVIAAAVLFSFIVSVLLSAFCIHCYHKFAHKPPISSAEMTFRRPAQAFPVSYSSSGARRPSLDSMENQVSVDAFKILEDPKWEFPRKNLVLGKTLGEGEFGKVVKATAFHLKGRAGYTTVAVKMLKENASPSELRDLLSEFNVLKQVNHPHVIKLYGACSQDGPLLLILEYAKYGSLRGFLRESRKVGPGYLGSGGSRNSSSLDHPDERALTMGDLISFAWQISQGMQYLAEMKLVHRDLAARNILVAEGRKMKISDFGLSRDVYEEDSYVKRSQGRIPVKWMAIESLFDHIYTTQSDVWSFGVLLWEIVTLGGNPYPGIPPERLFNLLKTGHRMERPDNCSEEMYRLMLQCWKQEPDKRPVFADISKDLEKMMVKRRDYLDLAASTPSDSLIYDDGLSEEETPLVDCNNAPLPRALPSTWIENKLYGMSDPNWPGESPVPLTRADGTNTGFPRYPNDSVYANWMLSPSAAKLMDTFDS
Settings: at 1 µM
Hi! Could you send only the number? It should be in %, unit omitted.

| INPUT_SMILES | UNITS_TEXT | NUMERIC_RESULT |
| --- | --- | --- |
| Nc1nonc1-c1nc2cnccc2n1C1CCCCC1 | % | 19.5 |
| NS(=O)(=O)c1ccc(N/C=C2\C(=O)Nc3ccc4ncsc4c32)cc1 | % | 73.9 |
| Fc1ccc(-c2ncn(C3CCNCC3)c2-c2ccnc(Oc3ccccc3)n2)cc1 | % | 5.85 |
| CCn1c(-c2nonc2N)nc2c(C#CC(C)(C)O)nc(O[C@@H](CN)c3ccccc3)cc21 | % | 47.7 |
| CCn1c(-c2nonc2N)nc2c(C#CC(C)(C)O)ncc(OCC3CCNCC3)c21 | % | 28.5 |

### Prompt // returns reported inhibition for input `COc1cc(C=NNc2ncnc3c2cnn3Cc2ccccc2)ccc1O`
### Response 11.1

### Prompt Please do the same for `NC(=O)c1sc(-n2cnc3cc(C(F)(F)F)ccc32)cc1OCc1ccccc1Br` as well.
### Response 11.6

### Prompt Please do the same for `COc1cccc(COc2cc(-n3cnc4ccccc43)sc2C(N)=O)c1` as well.
### Response 0.07

### Prompt Please do the same for `NS(=O)(=O)c1ccc(-c2ccc3c(NC(=O)C4CC4)n[nH]c3c2)cc1` as well.
### Response 4.4
